# ASSAY TEXT: Oral bioavailability in dog at 10 mg/kg
# Type: ADME, organism-based, Canis lupus familiaris
# STUDY CONDITIONS: in vivo
ENDPOINT NAME: bioavailability (%)
Lab book: enter the figure in %, no units written.

Query block: So what's the measured bioavailability for this one? `Cc1nnc2sc(C(=O)NCc3ccc(S(=O)(=O)C(F)(F)F)cc3)c(N)c2c1C.Cl`
Result block: 4.7

###

# TARGET: Muscarinic acetylcholine receptor M2 (Homo sapiens)
# Sequence (P08172 whole entry): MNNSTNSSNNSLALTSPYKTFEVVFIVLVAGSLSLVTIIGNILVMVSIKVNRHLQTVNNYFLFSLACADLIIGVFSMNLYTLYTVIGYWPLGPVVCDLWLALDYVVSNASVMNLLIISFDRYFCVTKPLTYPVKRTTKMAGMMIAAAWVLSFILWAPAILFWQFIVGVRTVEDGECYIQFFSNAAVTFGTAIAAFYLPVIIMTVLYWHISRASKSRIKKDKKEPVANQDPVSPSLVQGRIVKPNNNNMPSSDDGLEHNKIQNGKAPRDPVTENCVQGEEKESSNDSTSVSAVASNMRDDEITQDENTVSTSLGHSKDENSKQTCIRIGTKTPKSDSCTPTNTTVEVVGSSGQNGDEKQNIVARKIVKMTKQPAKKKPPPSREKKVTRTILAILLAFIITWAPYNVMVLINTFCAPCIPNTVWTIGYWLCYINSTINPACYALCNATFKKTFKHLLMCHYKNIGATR
# ASSAY TEXT: Positive allosteric modulation of human M2 receptor assessed as increase in acetylcholine-induced response
ENDPOINT NAME: EC50 (µM)
Lab book: enter the figure in µM, no units written.

Query block: So what's the measured EC50 for this one? `Cc1nnc2sc(C(=O)N3CC(c4cccc(F)c4)C3)c(N)c2c1C`
Result block: 2.1

###

# ASSAY TEXT: Ratio of unbound brain to plasma concentration in rat
# Assay type: ADME, cell-free
ENDPOINT NAME: K(p,uu,brain)
Reply briefly: the number, and no unit.

Query block: So what's the measured K(p,uu,brain) for this one? `Cc1nnc2sc(C(=O)N3CC(c4ccccc4)C3)c(N)c2c1C`
Result block: 2.1

Query block: So what's the measured K(p,uu,brain) for this one? `Cc1nnc2sc(C(=O)N3CC(c4ccc(F)cc4)C3)c(N)c2c1C`
Result block: 1.3

Query block: So what's the measured K(p,uu,brain) for this one? `Cc1nnc2sc(C(=O)N3CC(C4CCCCC4)C3)c(N)c2c1C`
Result block: 0.71

Query block: So what's the measured K(p,uu,brain) for this one? `Cc1nnc2sc(C(=O)N3CC(c4cccc(F)c4)C3)c(N)c2c1C`
Result block: 0.92

###

# TARGET: Muscarinic acetylcholine receptor M3 (Homo sapiens, UniProt P20309)
# Sequence (P20309 whole entry): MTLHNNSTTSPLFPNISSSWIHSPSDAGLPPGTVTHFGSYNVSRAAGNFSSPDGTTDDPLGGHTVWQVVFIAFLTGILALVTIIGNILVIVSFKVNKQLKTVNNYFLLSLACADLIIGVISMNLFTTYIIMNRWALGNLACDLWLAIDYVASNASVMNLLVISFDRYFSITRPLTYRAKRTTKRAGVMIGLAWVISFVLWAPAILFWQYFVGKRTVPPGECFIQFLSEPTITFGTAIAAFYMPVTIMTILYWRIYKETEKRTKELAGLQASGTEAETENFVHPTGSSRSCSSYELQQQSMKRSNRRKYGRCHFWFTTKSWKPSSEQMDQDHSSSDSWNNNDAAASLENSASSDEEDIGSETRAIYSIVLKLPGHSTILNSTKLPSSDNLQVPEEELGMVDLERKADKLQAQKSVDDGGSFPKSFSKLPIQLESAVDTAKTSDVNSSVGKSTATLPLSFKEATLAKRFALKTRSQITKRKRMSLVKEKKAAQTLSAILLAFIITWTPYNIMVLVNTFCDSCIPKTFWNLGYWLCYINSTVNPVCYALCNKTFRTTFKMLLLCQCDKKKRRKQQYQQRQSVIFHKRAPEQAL
# ASSAY TEXT: Positive allosteric modulation of human M3 receptor assessed as increase in acetylcholine-induced response
# Type: functional
pEC50: −log10 of the molar value.
ENDPOINT NAME: pEC50

Query block: So what's the measured pEC50 for this one? `Cc1nnc2sc(C(=O)N3CC(c4ccccc4)C3)c(N)c2c1C`
Result block: < 5.00

###

# ASSAY TEXT: Aqueous solubility of the compound at pH 7.4
# Type: physicochemical
# STUDY CONDITIONS: aqueous medium
ENDPOINT NAME: solubility

Query block: So what's the measured solubility for this one? `Cc1nnc2sc(C(=O)NCc3ccc(S(=O)(=O)C(F)(F)F)cc3)c(N)c2c1C`
Result block: < 0.5 µM

###

# TARGET: Muscarinic acetylcholine receptor M4 (Homo sapiens)
# ASSAY TEXT: Positive allosteric modulation of human M4 receptor expressed in CHO cells co-expressing Gqi5 assessed as increase in acetylcholine-induced calcium mobilization relative to acetylcholine
# Type: functional, cell-based
Record form. Attribute: %max. Fill in for each entry.

Query block: API: value(readout=%max, system=Muscarinic acetylcholine receptor M4 (Homo sapiens)) for record `COc1ccccc1C1CN(C(=O)c2sc3nnc(C)c(C)c3c2N)C1`
Result block: 54%

Query block: API: value(readout=%max, system=Muscarinic acetylcholine receptor M4 (Homo sapiens)) for record `Cc1nnc2sc(C(=O)N3CC(c4cccc(F)c4)C3)c(N)c2c1C`
Result block: 83%

Query block: API: value(readout=%max, system=Muscarinic acetylcholine receptor M4 (Homo sapiens)) for record `Cc1nnc2sc(C(=O)N3CC4(CCN(c5cccnc5)C4)C3)c(N)c2c1C`
Result block: 53 to 57%

Query block: API: value(readout=%max, system=Muscarinic acetylcholine receptor M4 (Homo sapiens)) for record Cc1nnc2sc(C(=O)N3CC(c4ccccc4)C3C)c(N)c2c1C (centres undefined)
Result block: 45%

Query block: API: value(readout=%max, system=Muscarinic acetylcholine receptor M4 (Homo sapiens)) for record `Cc1cccc(C2CN(C(=O)c3sc4nnc(C)c(C)c4c3N)C2)c1`
Result block: 83%

Query block: API: value(readout=%max, system=Muscarinic acetylcholine receptor M4 (Homo sapiens)) for record `COc1ccc(C2CN(C(=O)c3sc4nnc(C)c(C)c4c3N)C2)cc1`
Result block: 94%

Query block: API: value(readout=%max, system=Muscarinic acetylcholine receptor M4 (Homo sapiens)) for record Cc1nnc2sc(C(=O)N3CC(c4cccc(F)c4)C3C)c(N)c2c1C (centres undefined)
Result block: 45%

Query block: API: value(readout=%max, system=Muscarinic acetylcholine receptor M4 (Homo sapiens)) for record `Cc1ccccc1C1CN(C(=O)c2sc3nnc(C)c(C)c3c2N)C1`
Result block: 72%

Query block: API: value(readout=%max, system=Muscarinic acetylcholine receptor M4 (Homo sapiens)) for record `CCCCC1(F)CN(C(=O)c2sc3nnc(C)c(C)c3c2N)C1`
Result block: 85%

###

# TARGET: Muscarinic acetylcholine receptor M4 (Homo sapiens, UniProt P08173)
# Sequence (P08173 whole entry): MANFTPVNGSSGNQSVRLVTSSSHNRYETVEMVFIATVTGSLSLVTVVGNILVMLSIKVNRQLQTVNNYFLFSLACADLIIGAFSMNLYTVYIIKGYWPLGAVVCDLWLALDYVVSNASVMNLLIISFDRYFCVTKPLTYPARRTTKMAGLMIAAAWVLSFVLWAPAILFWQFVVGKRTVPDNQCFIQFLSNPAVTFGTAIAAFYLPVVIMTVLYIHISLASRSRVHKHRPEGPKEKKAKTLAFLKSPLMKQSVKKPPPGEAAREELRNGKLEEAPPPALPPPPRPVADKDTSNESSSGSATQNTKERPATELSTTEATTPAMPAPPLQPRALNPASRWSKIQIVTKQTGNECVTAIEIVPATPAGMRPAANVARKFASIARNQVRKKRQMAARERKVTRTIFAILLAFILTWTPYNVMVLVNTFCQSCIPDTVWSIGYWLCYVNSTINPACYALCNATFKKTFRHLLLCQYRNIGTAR
# ASSAY TEXT: Positive allosteric modulation of human M4 receptor expressed in CHO cells co-expressing Gqi5 assessed as increase in acetylcholine-induced calcium mobilization
ENDPOINT NAME: pEC50
Please express pEC50 as -log10 of the molar concentration.

Query block: API: value(readout=pEC50, system=Muscarinic acetylcholine receptor M4 (Homo sapiens, UniProt P08173)) for record `Cc1ccc(C2CN(C(=O)c3sc4nnc(C)c(C)c4c3N)C2)cc1`
Result block: 5.96

Query block: API: value(readout=pEC50, system=Muscarinic acetylcholine receptor M4 (Homo sapiens, UniProt P08173)) for record `COC1(c2cccc(F)c2)CN(C(=O)c2sc3nnc(C)c(C)c3c2N)C1`
Result block: 6.38

Query block: API: value(readout=pEC50, system=Muscarinic acetylcholine receptor M4 (Homo sapiens, UniProt P08173)) for record `COc1ccccc1C1CN(C(=O)c2sc3nnc(C)c(C)c3c2N)C1`
Result block: 5.64

Query block: API: value(readout=pEC50, system=Muscarinic acetylcholine receptor M4 (Homo sapiens, UniProt P08173)) for record `Cc1nnc2sc(C(=O)N3CC(c4cccs4)C3)c(N)c2c1C`
Result block: 6.70

Query block: API: value(readout=pEC50, system=Muscarinic acetylcholine receptor M4 (Homo sapiens, UniProt P08173)) for record `Cc1ccccc1C1CN(C(=O)c2sc3nnc(C)c(C)c3c2N)C1`
Result block: 6.34

Query block: API: value(readout=pEC50, system=Muscarinic acetylcholine receptor M4 (Homo sapiens, UniProt P08173)) for record `Cc1nnc2sc(C(=O)N3CC(F)(c4ccccn4)C3)c(N)c2c1C`
Result block: 5.65

Query block: API: value(readout=pEC50, system=Muscarinic acetylcholine receptor M4 (Homo sapiens, UniProt P08173)) for record `Cc1nnc2sc(C(=O)N3CC(c4ccccc4F)C3)c(N)c2c1C`
Result block: 6.39

Query block: API: value(readout=pEC50, system=Muscarinic acetylcholine receptor M4 (Homo sapiens, UniProt P08173)) for record `Cc1nnc2sc(C(=O)N3CC(C4CCCCC4)C3)c(N)c2c1C`
Result block: 6.75

Query block: API: value(readout=pEC50, system=Muscarinic acetylcholine receptor M4 (Homo sapiens, UniProt P08173)) for record Cc1nnc2sc(C(=O)N3CC(c4ccccc4)C3C)c(N)c2c1C (stereo unspecified)
Result block: 5.82

Query block: API: value(readout=pEC50, system=Muscarinic acetylcholine receptor M4 (Homo sapiens, UniProt P08173)) for record `Cc1nnc2sc(C(=O)N3CC(F)(c4cccc(F)c4)C3)c(N)c2c1C`
Result block: 6.35

###

# ASSAY TEXT: Elimination half life in Sprague-Dawley rat at 0.1 to 1 mg/kg, iv
# Type: ADME, organism-based
# STUDY CONDITIONS: in vivo, read-out: beta t1/2 (converted)
ENDPOINT NAME: half-life (h)
Lab book: enter the figure in h, no units written.

Query block: So what's the measured half-life for this one? `Cc1nnc2sc(C(=O)NCc3ccc(S(=O)(=O)C(F)(F)F)cc3)c(N)c2c1C`
Result block: 2.7

###

# ASSAY TEXT: Brain to plasma partition coefficient, Kp of the compound in Sprague-Dawley rat at 0.1 to 0.2 mg/kg, iv measured after 0.25 hrs
# Type: ADME, organism-based
ENDPOINT NAME: Kp at 0.25 h

Query block: So what's the measured Kp at 0.25 h for this one? `Cc1nnc2sc(C(=O)NCc3ccc(S(=O)(=O)C(F)(F)F)cc3)c(N)c2c1C`
Result block: 0.11
